- STUDY_TARGET: T1, Plasmodium falciparum Hsp110 (PfHsp70-z, PF3D7_0708800) (Plasmodium falciparum, UniProt Q8IC01 1-873)
- T1 sequence: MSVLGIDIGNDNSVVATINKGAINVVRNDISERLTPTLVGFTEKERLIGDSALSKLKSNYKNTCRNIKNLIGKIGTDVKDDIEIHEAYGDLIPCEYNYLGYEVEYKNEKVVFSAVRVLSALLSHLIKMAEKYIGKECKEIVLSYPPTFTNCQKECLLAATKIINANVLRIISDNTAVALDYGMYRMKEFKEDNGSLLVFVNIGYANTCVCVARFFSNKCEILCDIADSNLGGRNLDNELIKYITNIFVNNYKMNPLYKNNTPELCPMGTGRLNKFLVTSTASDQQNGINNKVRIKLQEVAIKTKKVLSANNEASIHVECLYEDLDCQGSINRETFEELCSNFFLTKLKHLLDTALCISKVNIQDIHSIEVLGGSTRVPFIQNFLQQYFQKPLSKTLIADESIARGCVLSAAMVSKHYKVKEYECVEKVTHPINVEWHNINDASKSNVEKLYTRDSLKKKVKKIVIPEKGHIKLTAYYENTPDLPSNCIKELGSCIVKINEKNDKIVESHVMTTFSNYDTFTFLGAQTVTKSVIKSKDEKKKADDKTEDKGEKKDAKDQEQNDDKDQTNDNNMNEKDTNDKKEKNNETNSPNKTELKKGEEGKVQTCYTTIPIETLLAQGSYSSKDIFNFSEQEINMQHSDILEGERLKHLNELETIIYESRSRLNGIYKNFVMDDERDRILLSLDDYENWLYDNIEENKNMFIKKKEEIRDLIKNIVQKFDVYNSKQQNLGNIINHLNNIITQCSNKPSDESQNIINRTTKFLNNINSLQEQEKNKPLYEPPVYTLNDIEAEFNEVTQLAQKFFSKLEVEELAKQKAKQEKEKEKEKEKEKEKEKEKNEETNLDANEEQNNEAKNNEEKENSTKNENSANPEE
- METHOD: SPR
PARAMETER_MEASURED: Kd (µM)
A number alone suffices; assume µM.

Examples with answers:
NRNNTG ... 0.0525
ANNNMYRR ... 0.00831
ALLLMYRR ... 0.0971

--- query ---
For the binder shown here, `NRLLTG` , give the reported Kd.
0.128
